Molecular target: FAK kinase (Homo sapiens, UniProt Q05397)
Sequence (Q05397 whole entry): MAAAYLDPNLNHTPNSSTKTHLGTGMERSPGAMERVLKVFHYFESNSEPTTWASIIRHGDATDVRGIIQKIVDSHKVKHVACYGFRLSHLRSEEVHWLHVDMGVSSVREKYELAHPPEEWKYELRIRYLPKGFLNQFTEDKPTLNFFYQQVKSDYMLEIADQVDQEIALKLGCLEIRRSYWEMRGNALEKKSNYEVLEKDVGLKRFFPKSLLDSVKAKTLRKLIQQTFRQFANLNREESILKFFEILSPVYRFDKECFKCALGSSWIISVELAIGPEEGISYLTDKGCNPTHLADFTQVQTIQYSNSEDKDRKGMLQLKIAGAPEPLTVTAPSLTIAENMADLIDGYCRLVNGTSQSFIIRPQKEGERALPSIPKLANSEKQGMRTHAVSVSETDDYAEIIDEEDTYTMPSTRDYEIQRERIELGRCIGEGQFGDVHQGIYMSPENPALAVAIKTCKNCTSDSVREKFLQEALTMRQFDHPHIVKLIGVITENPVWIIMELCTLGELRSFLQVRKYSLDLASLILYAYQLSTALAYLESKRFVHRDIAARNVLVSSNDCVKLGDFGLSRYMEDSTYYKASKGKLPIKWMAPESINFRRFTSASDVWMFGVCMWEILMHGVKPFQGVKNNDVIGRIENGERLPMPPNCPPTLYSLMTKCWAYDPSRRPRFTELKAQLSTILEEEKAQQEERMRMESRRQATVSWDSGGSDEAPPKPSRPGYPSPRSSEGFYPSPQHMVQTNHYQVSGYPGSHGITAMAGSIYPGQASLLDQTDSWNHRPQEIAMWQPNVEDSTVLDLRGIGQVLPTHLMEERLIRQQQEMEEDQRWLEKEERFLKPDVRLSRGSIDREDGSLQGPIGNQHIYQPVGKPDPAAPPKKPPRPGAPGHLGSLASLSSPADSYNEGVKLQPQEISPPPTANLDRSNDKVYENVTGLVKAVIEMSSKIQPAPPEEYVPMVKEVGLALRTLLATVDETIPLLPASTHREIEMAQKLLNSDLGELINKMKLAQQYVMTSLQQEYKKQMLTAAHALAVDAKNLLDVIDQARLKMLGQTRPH
Experiment: FAK kinase activity inhibition assay, method A (HTRF) and method B (Lantha screen)
Type: biochemical
Settings: Table 3; read-out: FAK(method A and B) (IC50)
Procedure: The HTRF method was used to evaluate the inhibitory activity of the compounds against FAK kinase. […]. The reaction conditions were: FAK kinase at 0.1 ng/µL; ATP 10 µM; substrate concentration 1 µM. Compounds were serially diluted in DMSO and shaken on a shaker for 20 minutes. Prepare 2× kinase using 1× reaction buffer. […] Read fluorescence at 620 nm (Cryptate) and 665 nm (XL665). […] IC50 values (half-maximal inhibitory concentration) were calculated by nonlinear regression using GraphPad Prism 7.0. […]
pIC50: −log10 of the molar value.
ENDPOINT: pIC50

Prompt: Find the measured pIC50: item `CC(C)Oc1cc2c(cc1Nc1ncc(Cl)c(Nc3ccccc3S(=O)(=O)C(C)C)n1)OC[C@@H]1CN(C3CCN(C)CC3)CCN21` , target or system FAK kinase (Homo sapiens, UniProt Q05397).
Completion: > 8.30

---

target: AXL (Homo sapiens); test: AXL kinase activity inhibition assay (Mobility shift assay); format: biochemical
Sequence (P30530 26-894): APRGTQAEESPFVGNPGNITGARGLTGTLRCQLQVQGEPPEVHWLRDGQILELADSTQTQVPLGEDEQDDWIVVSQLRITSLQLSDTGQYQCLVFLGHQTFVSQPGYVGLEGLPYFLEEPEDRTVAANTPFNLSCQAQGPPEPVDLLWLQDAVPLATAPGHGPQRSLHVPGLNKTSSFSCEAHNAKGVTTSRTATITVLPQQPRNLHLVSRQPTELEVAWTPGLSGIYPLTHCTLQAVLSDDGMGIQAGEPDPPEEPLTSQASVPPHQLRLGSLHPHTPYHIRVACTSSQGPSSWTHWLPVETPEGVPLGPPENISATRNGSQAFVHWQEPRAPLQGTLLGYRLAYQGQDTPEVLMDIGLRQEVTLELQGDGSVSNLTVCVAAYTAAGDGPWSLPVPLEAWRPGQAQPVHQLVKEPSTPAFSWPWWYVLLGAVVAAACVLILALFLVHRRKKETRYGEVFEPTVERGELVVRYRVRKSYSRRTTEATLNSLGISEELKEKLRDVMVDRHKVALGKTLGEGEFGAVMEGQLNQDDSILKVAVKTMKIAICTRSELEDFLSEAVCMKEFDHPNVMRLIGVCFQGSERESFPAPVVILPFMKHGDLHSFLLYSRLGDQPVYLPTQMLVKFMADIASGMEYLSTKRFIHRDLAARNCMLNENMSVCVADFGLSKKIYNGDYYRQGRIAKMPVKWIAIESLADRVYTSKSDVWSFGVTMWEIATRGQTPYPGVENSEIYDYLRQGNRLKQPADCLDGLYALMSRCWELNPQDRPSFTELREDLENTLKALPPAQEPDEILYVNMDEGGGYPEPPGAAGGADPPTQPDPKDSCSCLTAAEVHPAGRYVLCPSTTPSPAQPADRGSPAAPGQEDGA
pIC50: −log10 of the molar value.
ENDPOINT: pIC50

Prompt: Fill blank: measured pIC50 of the molecule `COc1cc2c(cc1Nc1ncc(Cl)c(Nc3ccccc3S(=O)(=O)C(C)C)n1)OC[C@@H]1CN(C3CCN(C)CC3)CCN21` is ____.
Completion: > 7.52

---

target: FAK kinase (Homo sapiens); assay: FAK kinase activity inhibition assay, method A (HTRF) and method B (Lantha screen); format: biochemical; details: Table 4; read-out: FAK(method A and method B) (IC50)
pIC50: −log10 of the molar value.
Catalogue of pIC50 readings, one per entry.

INSERT INTO results (compound, result) VALUES
  ('CCOc1cc2c(cc1Nc1cc(Nc3ccccc3C(=O)NC)c(C(F)(F)F)cn1)OC[C@@H]1CN(C3CCN(C)CC3)CCN21 [Compound D5S]', '> 9.00');

Okay, now this compound:
Prompt: Report pIC50 for CNC(=O)c1ccccc1Nc1cc(Nc2cc3c(cc2OC)N2CCN(C4COC4)C[C@H]2CO3)ncc1C(F)(F)F [Compound D3S] please.
Completion: > 9.00

---

In this section we review reported pIC50 values for a set of compounds.
Target: FAK kinase (Homo sapiens, UniProt Q05397)
Test: FAK kinase activity inhibition assay, method A (HTRF) and method B (Lantha screen)
Format: biochemical
Experimental: The HTRF method was used to evaluate the inhibitory activity of the compounds against FAK kinase. […]. The reaction conditions were: FAK kinase at 0.1 ng/µL; ATP 10 µM; substrate concentration 1 µM. Compounds were serially diluted in DMSO and shaken on a shaker for 20 minutes. Prepare 2× kinase using 1× reaction buffer. […] Read fluorescence at 620 nm (Cryptate) and 665 nm (XL665). […] IC50 values (half-maximal inhibitory concentration) were calculated by nonlinear regression using GraphPad Prism 7.0. […]
pIC50: −log10 of the molar value.

Previously resolved entries follow.
INSERT INTO measurements (compound, endpoint, result) VALUES
  ('COc1cc2c(cc1Nc1ncc(Cl)c(Nc3ccccc3S(=O)(=O)C(C)C)n1)OC[C@@H]1CN(C3CCOCC3)CCN21 [Compound C1S]', 'pIC50', '> 9.00'),
  ('CNC(=O)c1ccccc1Nc1cc(Nc2cc3c(cc2OC)N2CCN(C4CCN(C)CC4)C[C@H]2CO3)ncc1C(F)(F)F [Compound D2S]', 'pIC50', '> 9.30'),
  ('COc1cc2c(cc1Nc1ncc(Cl)c(Nc3ccccc3S(=O)(=O)C(C)C)n1)OC[C@@H]1CN(C3CCN(C)CC3)CCN21 [Compound C2S]', 'pIC50', '> 9.00'),
  ('CNC(=O)c1ccccc1Nc1cc(Nc2cc3c(cc2OC)N2CCN(C4CCOCC4)C[C@H]2CO3)ncc1C(F)(F)F [Compound D1S]', 'pIC50', '> 9.30'),
  ('CNC(=O)c1ccccc1Nc1cc(Nc2cc3c(cc2OC)N2CCN(C4CN(C)C4)C[C@H]2CO3)ncc1C(F)(F)F [Compound D4S]', 'pIC50', '> 9.00'),
  ('CNC(=O)c1ccccc1Nc1cc(Nc2cc3c(cc2OC(C)C)N2CCN(C4CCN(C)CC4)C[C@H]2CO3)ncc1C(F)(F)F [Compound D6S]', 'pIC50', '> 8.52'),
  ('CNC(=O)c1ccccc1Nc1cc(Nc2cc3c(cc2OC)N2CCN(C4CCN(C)CC4)C[C@@H]2CO3)ncc1C(F)(F)F [Compound D2R]', 'pIC50', '> 9.00');

Prompt: Reported pIC50 for CNC(=O)c1ccccc1Nc1cc(Nc2cc3c(cc2OC)N2CCN(C4CCOCC4)C[C@@H]2CO3)ncc1C(F)(F)F [Compound D1R] : what is it?
Completion: > 8.52
